Measured concentration at 6 h of individual entries
# run description: Example 6 pharmacokinetics assay for efficacy study (plasma, liver)
# Type: in vivo, BALB/c nude mice
# assay context: mouse, liver, po, 10 mg/kg, p.o., BID × 21 days, read-out: Concentration in Liver (mean ± SEM)
metric: concentration at 6 h (ng/g)

• CCN(C)S(=O)(=O)Nc1ccc(F)c(Oc2ccc3ncc([C@@H]4COC5(CCN(C6CCC(c7cc8c(cc7F)c(N7CCC(=O)NC7=O)nn8C)CC6)CC5)C4)nc3c2)c1C#N (single isomer, unassigned) = 4240
• Cn1nc(N2CCC(=O)NC2=O)c2cc(F)c(C3CCC(N4CCC5(CC4)CC(n4cnc6ccc(Oc7c(F)ccc(NS(=O)(=O)C8CCCC8)c7C#N)cc6c4=O)C5)CC3)cc21 (single isomer, unassigned) = 652
• CCN(C)S(=O)(=O)Nc1ccc(F)c(Oc2ccc3ncn(C4CC5(CCN(C6CCC(c7cc8c(cc7F)c(N7CCC(=O)NC7=O)nn8C)CC6F)CC5)C4)c(=O)c3c2)c1C#N (single isomer, unassigned) = 11000

###

# run description: Pharmacokinetics after 21 days dosing in the efficacy study (plasma, tumor and brain concentrations; plasma AUC at steady state), Example 14
# Type: in vivo, female BALB/c nude mice
# assay context: mouse, plasma, po; 0.75 mg/kg p.o. BID x 21 days; 8 h; mean ± SEM
metric: concentration at 8 h (ng/mL)

• CCN(C)S(=O)(=O)Nc1ccc(F)c(Oc2ccc3ncn(C4CC5(CCN(C6CC7(C6)CN(c6cc8c(cc6F)c(N6CCC(=O)NC6=O)nn8C)C7)CC5)C4)c(=O)c3c2)c1C#N (stereo not shown) = 432

###

# run description: Pharmacokinetics after 21 days dosing in the efficacy study (plasma, tumor and brain concentrations; plasma AUC at steady state), Example 14
# Type: in vivo, female BALB/c nude mice
# assay context: mouse, tumor, po; 3 mg/kg p.o. BID x 21 days; 4 h; mean ± SEM; read-out: Concentration in Tumor
metric: concentration at 4 h

- CCN(C)S(=O)(=O)Nc1ccc(F)c(Oc2ccc3ncn([C@H]4COC5(CCN(C6CC7(C6)CN(c6cc8c(cc6F)c(N6CCC(=O)NC6=O)nn8C)C7)CC5)C4)c(=O)c3c2)c1C#N: 1430 ng/g

###

# run description: Pharmacokinetics in female BALB/c nude mice bearing A375 xenografts, 1 day dosing (PK and PD study): plasma, tumor and brain concentrations, AUC
# Format: in vivo
# assay context: mouse, tumor, po, 6 mg/kg, 6 mg/kg p.o. QD × 1 day; 4 h; read-out: Mean Concentration in Tumor ± SEM
metric: concentration at 4 h (ng/g)

* CCN(C)S(=O)(=O)Nc1ccc(F)c(Oc2ccc3ncn([C@H]4COC5(CCN(C6CC7(C6)CN(c6cc8c(cc6F)c(N6CCC(=O)NC6=O)nn8C)C7)CC5)C4)c(=O)c3c2)c1C#N [Compound 26] | 2070

###

# run description: Pharmacokinetics in female BALB/c nude mice bearing A375 xenografts, 1 day dosing (PK and PD study): plasma, tumor and brain concentrations, AUC
# Format: in vivo
# assay context: mouse, plasma, po, 1.5 mg/kg, 1.5 mg/kg p.o. BID × 1 day; post 2nd dose; 24 h; read-out: Mean Concentration in Plasma ± SEM
metric: concentration at 24 h (ng/mL)

• CCN(C)S(=O)(=O)Nc1ccc(F)c(Oc2ccc3ncn([C@H]4COC5(CCN(C6CC7(C6)CN(c6cc8c(cc6F)c(N6CCC(=O)NC6=O)nn8C)C7)CC5)C4)c(=O)c3c2)c1C#N = 4.74

###

# run description: Example 8 pharmacokinetics assay for PKPD study (plasma, tumor, liver)
# Type: in vivo, BALB/c nude mice
# assay context: mouse, tumor, po, 35 mg/kg, p.o., single dose; 1 h; read-out: Concentration in Tumor (mean ± SEM)
metric: concentration at 1 h

* COC(=O)N[C@@H](C)CNc1nccc(-c2cn(C(C)C)nc2-c2cc(Cl)cc(NS(C)(=O)=O)c2F)n1 [Encorafenib, encorafenib, reference compound] | 1350 ng/g

###

# run description: Pharmacokinetics in female BALB/c nude mice bearing A375 xenografts, 1 day dosing (PK and PD study): plasma, tumor and brain concentrations, AUC
# Assay type: in vivo
# assay context: mouse, plasma, po, 1.5 mg/kg, 1.5 mg/kg p.o. BID × 1 day; post 2nd dose; 4 h; read-out: Mean Concentration in Plasma ± SEM
metric: concentration at 4 h (ng/mL)

* CCN(C)S(=O)(=O)Nc1ccc(F)c(Oc2ccc3ncn([C@H]4COC5(CCN(C6CC7(C6)CN(c6cc8c(cc6F)c(N6CCC(=O)NC6=O)nn8C)C7)CC5)C4)c(=O)c3c2)c1C#N [Compound 26] | 1740

###

# measured on: BRAF V600E (Homo sapiens, UniProt P15056+Q96SW2, V600E)
# Construct: knock-in of the HiBiT tag to the endogenous BRAF V600E locus; host or cells: A375.10 (A375 clonal line, CRISPR HiBiT knock-in at the endogenous BRAF V600E locus)
# Sequence (P15056 whole entry V600E): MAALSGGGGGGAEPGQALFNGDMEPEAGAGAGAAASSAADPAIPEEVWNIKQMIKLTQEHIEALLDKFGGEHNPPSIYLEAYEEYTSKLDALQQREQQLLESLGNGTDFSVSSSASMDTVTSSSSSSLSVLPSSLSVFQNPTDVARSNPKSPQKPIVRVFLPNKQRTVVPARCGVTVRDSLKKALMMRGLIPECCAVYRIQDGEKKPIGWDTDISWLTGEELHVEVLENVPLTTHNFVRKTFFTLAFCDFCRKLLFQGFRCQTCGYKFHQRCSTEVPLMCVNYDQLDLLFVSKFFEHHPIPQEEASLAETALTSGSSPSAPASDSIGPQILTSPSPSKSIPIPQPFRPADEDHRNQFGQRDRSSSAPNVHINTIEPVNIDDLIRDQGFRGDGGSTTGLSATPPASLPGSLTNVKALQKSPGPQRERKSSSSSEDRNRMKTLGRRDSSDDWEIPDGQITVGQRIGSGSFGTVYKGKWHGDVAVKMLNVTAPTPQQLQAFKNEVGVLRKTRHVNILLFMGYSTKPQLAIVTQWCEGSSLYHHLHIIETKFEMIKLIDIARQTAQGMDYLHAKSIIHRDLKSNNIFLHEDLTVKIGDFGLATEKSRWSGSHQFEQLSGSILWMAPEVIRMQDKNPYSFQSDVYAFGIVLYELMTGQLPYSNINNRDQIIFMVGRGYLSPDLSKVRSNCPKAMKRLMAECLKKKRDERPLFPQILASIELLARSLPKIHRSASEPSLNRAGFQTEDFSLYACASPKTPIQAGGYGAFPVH
# Sequence (Q96SW2 whole entry): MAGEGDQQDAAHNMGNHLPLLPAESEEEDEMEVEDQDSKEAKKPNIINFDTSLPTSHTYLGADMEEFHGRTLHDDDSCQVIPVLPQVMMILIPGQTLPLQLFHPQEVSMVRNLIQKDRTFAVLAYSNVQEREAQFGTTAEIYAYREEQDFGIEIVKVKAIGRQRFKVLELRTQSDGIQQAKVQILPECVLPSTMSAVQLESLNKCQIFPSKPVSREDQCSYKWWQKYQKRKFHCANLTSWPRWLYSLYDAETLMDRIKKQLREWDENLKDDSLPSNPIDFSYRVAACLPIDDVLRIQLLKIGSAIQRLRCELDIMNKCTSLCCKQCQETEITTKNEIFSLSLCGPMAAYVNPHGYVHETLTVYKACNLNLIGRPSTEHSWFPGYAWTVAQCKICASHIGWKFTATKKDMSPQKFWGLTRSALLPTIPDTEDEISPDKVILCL
# Sequence (Q16531 whole entry partner): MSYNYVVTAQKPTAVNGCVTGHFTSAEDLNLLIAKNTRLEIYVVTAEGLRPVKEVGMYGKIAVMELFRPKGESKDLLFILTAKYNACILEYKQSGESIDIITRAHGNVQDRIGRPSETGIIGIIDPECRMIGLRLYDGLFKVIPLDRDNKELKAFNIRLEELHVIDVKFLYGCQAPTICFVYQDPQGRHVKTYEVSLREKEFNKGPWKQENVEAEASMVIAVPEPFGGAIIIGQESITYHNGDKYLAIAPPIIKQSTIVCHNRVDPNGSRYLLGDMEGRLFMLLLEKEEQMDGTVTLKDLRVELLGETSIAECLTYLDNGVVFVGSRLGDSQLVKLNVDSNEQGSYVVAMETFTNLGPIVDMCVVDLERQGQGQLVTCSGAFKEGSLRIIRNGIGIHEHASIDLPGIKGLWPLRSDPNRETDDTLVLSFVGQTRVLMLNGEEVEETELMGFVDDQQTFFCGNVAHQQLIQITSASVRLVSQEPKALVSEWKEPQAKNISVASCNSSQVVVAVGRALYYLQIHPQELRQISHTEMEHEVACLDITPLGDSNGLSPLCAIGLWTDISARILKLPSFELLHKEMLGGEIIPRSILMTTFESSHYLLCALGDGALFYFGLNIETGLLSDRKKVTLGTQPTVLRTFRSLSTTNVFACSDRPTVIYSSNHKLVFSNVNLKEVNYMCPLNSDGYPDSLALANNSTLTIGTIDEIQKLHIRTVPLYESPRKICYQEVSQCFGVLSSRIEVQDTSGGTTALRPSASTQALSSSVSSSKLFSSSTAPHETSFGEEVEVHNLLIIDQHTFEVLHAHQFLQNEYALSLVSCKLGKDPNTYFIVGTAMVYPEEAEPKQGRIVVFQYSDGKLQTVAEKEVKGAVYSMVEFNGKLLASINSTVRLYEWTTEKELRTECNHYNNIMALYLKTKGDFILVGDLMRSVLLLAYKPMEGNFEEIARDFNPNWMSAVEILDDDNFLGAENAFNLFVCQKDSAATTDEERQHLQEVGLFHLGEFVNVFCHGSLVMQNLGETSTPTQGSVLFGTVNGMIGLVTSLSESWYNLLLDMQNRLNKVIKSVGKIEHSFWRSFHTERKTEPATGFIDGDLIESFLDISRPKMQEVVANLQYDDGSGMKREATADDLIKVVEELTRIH
# run description: BRAF V600E HiBiT Degradation Assay
# Type: cell-based
# assay context: A375.10 cells, BRAF V600E, 2 hours; inflection point; read-out: HiBiT-Degradation A375.10 BRAF 2 hours IP
metric: DC50

* CCN(C)S(=O)(=O)Nc1ccc(F)c(Nc2ccc3ncn([C@H]4COC5(CCN(C6CCC(c7cc8c(cc7F)c(N7CCC(=O)NC7=O)nn8C)CC6)CC5)C4)c(=O)c3c2)c1C#N (single isomer, unassigned) [Compound 65] | < 1 µM
* CCN(C)S(=O)(=O)Nc1ccc(F)c(Oc2ccc3ncn([C@@H]4COC5(C4)CN(C4CCC(c6cc7c(cc6F)c(N6CCC(=O)NC6=O)nn7C)CC4)C5)c(=O)c3c2)c1C#N (single isomer, unassigned) [Compound 238] | < 1 µM

###

# run description: Pharmacokinetics in female BALB/c nude mice bearing A375 xenografts, 1 day dosing (PK and PD study): plasma, tumor and brain concentrations, AUC
# Assay type: in vivo
# assay context: mouse, plasma, po, 0.75 mg/kg, 0.75 mg/kg p.o. BID × 1 day; post 1st dose; 4 h; read-out: Mean Concentration in Plasma ± SEM
metric: concentration at 4 h (ng/mL)

- CCN(C)S(=O)(=O)Nc1ccc(F)c(Oc2ccc3ncn(C4CC5(CCN(C6CC7(C6)CN(c6cc8c(cc6F)c(N6CCC(=O)NC6=O)nn8C)C7)CC5)C4)c(=O)c3c2)c1C#N (stereo not shown) [Compound 141]: 491

###

# run description: Pharmacokinetics after 21 days dosing in the efficacy study (plasma, tumor and brain concentrations; plasma AUC at steady state), Example 14
# Format: in vivo, female BALB/c nude mice
# assay context: mouse, plasma, po; 1.5 mg/kg p.o. BID x 21 days; 2 h; mean ± SEM
Measured concentration at 2 h of individual entries
metric: concentration at 2 h (ng/mL)

• CCN(C)S(=O)(=O)Nc1ccc(F)c(Oc2ccc3ncn(C4CC5(CCN(C6CC7(C6)CN(c6cc8c(cc6F)c(N6CCC(=O)NC6=O)nn8C)C7)CC5)C4)c(=O)c3c2)c1C#N (centres unmarked) [Compound 141] = 2120
• CCN(C)S(=O)(=O)Nc1ccc(F)c(Oc2ccc3ncn([C@H]4COC5(CCN(C6CC7(C6)CN(c6cc8c(cc6F)c(N6CCC(=O)NC6=O)nn8C)C7)CC5)C4)c(=O)c3c2)c1C#N [Compound 26] = 3140

###

# run description: Pharmacokinetics in female BALB/c nude mice bearing A375 xenografts, 1 day dosing (PK and PD study): plasma, tumor and brain concentrations, AUC
# Assay type: in vivo
# assay context: mouse, plasma, po, 3 mg/kg, 3 mg/kg p.o. QD × 1 day; 24 h; read-out: Mean Concentration in Plasma ± SEM
metric: concentration at 24 h (ng/mL)

- CCN(C)S(=O)(=O)Nc1ccc(F)c(Oc2ccc3ncn(C4CC5(CCN(C6CC7(C6)CN(c6cc8c(cc6F)c(N6CCC(=O)NC6=O)nn8C)C7)CC5)C4)c(=O)c3c2)c1C#N (stereo not shown): 3.86

###

# run description: Pharmacokinetics after 21 days dosing in the efficacy study (plasma, tumor and brain concentrations; plasma AUC at steady state), Example 14
# Format: in vivo, female BALB/c nude mice
# assay context: mouse, plasma, po; 5 mg/kg p.o. BID x 21 days; 8 h; mean ± SEM
metric: concentration at 8 h (µg/mL)

- CCN(C)S(=O)(=O)Nc1ccc(F)c(Oc2ccc3ncn(C4CC5(CCN(C6CC7(C6)CN(c6cc8c(cc6F)c(N6CCC(=O)NC6=O)nn8C)C7)CC5)C4)c(=O)c3c2)c1C#N (stereo not shown): 3.26

###

# run description: Pharmacokinetics in female BALB/c nude mice bearing A375 xenografts, 1 day dosing (PK and PD study): plasma, tumor and brain concentrations, AUC
# Type: in vivo
# assay context: mouse, tumor, po, 10 mg/kg, 10 mg/kg p.o. BID × 1 day; post 2nd dose; 48 h; read-out: Mean Concentration in Tumor ± SEM
# From the text: The concentrations of Dabrafenib, Compound 26 and Compound 141 in the treatment of female BALB/c nude mice bearing A375 xenografts are shown in Table 62-Table 72 and FIG. 52-FIG. 73.
metric: concentration at 48 h (ng/g)

- CCN(C)S(=O)(=O)Nc1ccc(F)c(Oc2ccc3ncn([C@H]4COC5(CCN(C6CC7(C6)CN(c6cc8c(cc6F)c(N6CCC(=O)NC6=O)nn8C)C7)CC5)C4)c(=O)c3c2)c1C#N: 81.6
